Answer each item with its documented viability.
METHOD NOTES: growth suppression of beta-catenin knockout HCT116, pilot screen, human colon tumor cells (AID 823);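 note: 0% = wells killed by 20 µM Hyamine and 100% = untreated DMSO cell wells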
COND: CellTiter-Glo, 60 h, at 10 µM, active compounds read low
Records with an inconclusive call do not appear.
Field: numeric (%). Do not append units.

Return value of viability for input CCC(=O)NCCc1cc2ccc(C)cc2[nH]c1=O , no commentary.
110

Return value of viability for input CCOC(=O)Cn1c(=O)oc2cc(S(=O)(=O)Nc3c(C)cc(C)cc3C)ccc21 , no commentary.
94.5

Return value of viability for input CCOc1ccccc1Nc1cc(C)nc2nc(C)nn12 , no commentary.
104

Return value of viability for input CCN(Cc1ccccc1)C(=O)Cn1cc2c(n1)CCCC2 , no commentary.
94

Return value of viability for input CC1Cn2c(COc3ccccc3)nnc2S1 (centres undefined) , no commentary.
102

Return value of viability for input CCN1CCN(C(=O)c2cc3c(s2)-c2ccccc2S(=O)(=O)C3)CC1 , no commentary.
99.6

Return value of viability for input COc1cc2[nH]c(=O)n(CCC(=O)NCc3cccnc3)c(=O)c2cc1OC , no commentary.
98.7

Return value of viability for input COc1cccc(C2NC(=O)NC(C)=C2C(=O)OCCSC)c1OC (centres undefined) , no commentary.
93.7

Return value of viability for input COc1ccccc1-c1c(C)nn2c(N3CCCCCC3)cc(C)nc12 , no commentary.
6.78

Return value of viability for input CC(CC1C(C#N)=C(N)OC2=C1C(=O)CCC2)c1ccccc1 (centres undefined) , no commentary.
98.6

Return value of viability for input CCOC(=O)C1CCCN(Cc2nc(N)nc(Nc3ccccc3OC)n2)C1 (centres undefined) , no commentary.
88.8

Return value of viability for input CCOc1ccc(OCC)c(Nc2cc(C)nc3ncnn23)c1 , no commentary.
90

Return value of viability for input CCOc1ccccc1C1CC(c2ccccc2)Nc2nc(N)nn21 (centres undefined) , no commentary.
97.2

Return value of viability for input CCCC(=O)NCCc1cc2ccc(C)c(C)c2[nH]c1=O , no commentary.
103

Return value of viability for input CC(C)(C)n1nc2c(c1NC(=O)Cc1ccc(F)cc1)CSC2 , no commentary.
94

Return value of viability for input CC(C)CC(NS(=O)(=O)c1ccc2c(c1)oc(=O)n2C)C(=O)NCc1cccnc1 (centres undefined) , no commentary.
112

Return value of viability for input CC(=O)Nc1sc(N)nc1-c1ccccc1 , no commentary.
88.7

Return value of viability for input CCN(CCNS(=O)(=O)c1ccc2c(c1)oc(=O)n2C)c1ccccc1 , no commentary.
108

Return value of viability for input O=C(O)CCC(=O)c1ccc2c(c1)OCCO2 , no commentary.
101

Return value of viability for input CCOC(=O)c1ccc(NC2c3ccccc3C(=O)N2c2cccnc2)cc1 (centres undefined) , no commentary.
65.5

Return value of viability for input Cc1c(C)n(CC(O)CN2CCCCCC2)c2ccccc12 (centres undefined) , no commentary.
79.6

Return value of viability for input Cc1onc(-c2ccccc2Cl)c1C(=O)Nc1c(C)n(C)n(-c2ccccc2)c1=O , no commentary.
104

Return value of viability for input CCc1c(C(C)O)oc2ccc3c(C)cc(=O)oc3c12 (centres undefined) , no commentary.
84.3

Return value of viability for input Cn1c(Cn2c(=O)sc3ccccc32)nnc1SCC(=O)NCCc1ccccc1 , no commentary.
100
